# target system: SARS-CoV-2 MPro (main protease, 3CL protease, Nsp5) (Severe acute respiratory syndrome coronavirus 2)
# Construct: gene rep
# Set-up: fluorogenic NSP7 peptide substrate cleavage, concentration-response inhibition of MPro
# conditions: read-out: IC50 [µM] (ACN); compound in acetonitrile; inhibitor
metric: IC50 (µM)
One number for each entry, in µM.

So for CC1CN(c2ncnc3sc4ccccc4c23)CC(=O)N1C (stereo not shown) , the logged IC50 turned out to be 177
